Target: catalytic domain (JH1, amino acids 826-1132) of human JAK2 (Homo sapiens, UniProt O60674)
Construct: catalytic domain (JH1, amino acids 826-1132) of human JAK2
Sequence (O60674 826-1132): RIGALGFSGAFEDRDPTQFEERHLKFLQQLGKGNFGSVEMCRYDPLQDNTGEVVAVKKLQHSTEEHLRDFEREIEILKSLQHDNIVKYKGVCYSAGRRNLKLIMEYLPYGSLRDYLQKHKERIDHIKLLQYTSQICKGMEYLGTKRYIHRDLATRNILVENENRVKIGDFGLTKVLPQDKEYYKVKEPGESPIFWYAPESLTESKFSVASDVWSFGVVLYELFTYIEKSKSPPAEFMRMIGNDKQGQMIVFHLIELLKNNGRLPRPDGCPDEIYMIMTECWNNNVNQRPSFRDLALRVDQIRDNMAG
Experiment: JAK2 LanthaScreen JH1 Binding Assay
Conditions: 2 hours at 25° C.
Where a name gives a salt, the structure may show the parent alone.
QUANTITY: IC50

>>> obs_value("[2H]C([2H])([2H])n1ncc2cc(-c3c(-c4cnn(C)c4)[nH]c4ncc5c(c34)[C@@]3(CC[C@H](NS(=O)(=O)C4CC4)C3)C(=O)N5C)ccc21 (racemic) [Example 56, trifluoroacetate salt]")
"1250 to 2500 nM"
>>> obs_value("CN1C(=O)C2(CCN(C(C)(C)c3nnc[nH]3)CC2)c2c1cnc1[nH]c(-c3cnn(C)c3)c(-c3ccc4c(cnn4C)c3)c21 [Example 77]")
"500 to 1250 nM"
>>> obs_value("CN1C(=O)C2(CCN(C3(CC#N)CCC3)CC2)c2c1cnc1[nH]c(-c3cnn(CC4CC4)c3)c(-c3ccc4c(cnn4C)c3)c21 [Example 39, trifluoroacetate salt]")
"100 to 500 nM"
>>> obs_value("CC(CC#N)n1cc(-c2ccc(-c3c(-c4cnn(C)c4)[nH]c4ncc5c(c34)C3(CCCC3)C(=O)N5C)cc2)cn1 (racemic) [Example 14, trifluoroacetate salt]")
"> 2500 nM"
>>> obs_value("CN1C(=O)C2(CCN(C3(CC#N)CCC3)CC2)c2c1cnc1[nH]c(-c3cn(C)nc3C3CC3)c(-c3ccc4c(cnn4C)c3)c21 [Example 40, trifluoroacetate salt]")
"> 2500 nM"
>>> obs_value("O=C(O)C(F)(F)F.[2H]C([2H])([2H])N1C(=O)C2(CC3(CN(S(=O)(=O)CC)C3)C2)c2c1cnc1[nH]c(-c3ccc(CN4CCOCC4)cc3)c(-c3ccc(OC)cc3)c21 [Example 92]")
"> 2500 nM"
